# System: T47D
# assay: NCI tumour cell line growth inhibition, 48 h
The source made the active and inactive calls. Cut-off read from the data, not from the text of the source: active = GI50 up to about 1.1 µM and inactive = higher.
measurement_name: GI50

| molecule | system_under_test | readout_value |
| --- | --- | --- |
| COc1cc(/C=N/N=C2NCCCN2)ccc1O | T47D | > 100 µM (inactive) |
| O=c1[nH]c(=O)c2ncn(-c3ccc([N+](=O)[O-])cn3)c2[nH]1 | T47D | > 100 µM (inactive) |
| Cn1c(=O)ccc2c(=O)c3ccccc3oc21 | T47D | > 100 µM (inactive) |
| CCOP(=O)(OCC)C(Nc1ccc(F)cc1)c1ccccc1 (configuration not stated) | T47D | 35.1 µM (inactive) |
| CC1=[N+](C)CCN1C | T47D | > 100 µM (inactive) |
| c1ccc(CNCCN2CCNCC2)nc1 | T47D | > 100 µM (inactive) |
| NC1=NCC(CN2CCCC2)O1 (configuration not stated) | T47D | > 100 µM (inactive) |
| Cc1cc(CN(Cc2ccccc2)Cc2nc3ccccc3[nH]2)c(O)c(CN(Cc2nc3ccccc3[nH]2)Cc2nc3ccccc3[nH]2)c1 | T47D | 8.05 µM (inactive) |
| COc1ccc2c(c1[N+](=O)[O-])CC[C@@H]1[C@@H]2CC[C@]2(C)C(=O)CC[C@@H]12 | T47D | > 25 µM (inactive) |
| O=C1C2CCCC2N1Cc1ccccc1 (configuration not stated) | T47D | > 100 µM (inactive) |
| CN/N=C(/C=C/c1ccccc1)C(C)C | T47D | 86.3 µM (inactive) |
| Cc1sc2ncnc(NCCc3ccccc3)c2c1C | T47D | 2.29 µM (inactive) |

From: ChEMBL document CHEMBL1201862
